test_details: Toxicity liver stage against HepG2, at 10uM
Format: cell-based
Design: test concentration 10 uM, cell line HepG2-A16-CD81EGFP
test_conditions: human, HepG2-A16-CD81EGFP cells; read-out: INHIBITION
Listed here are compounds together with their documented cytotoxicity at 10 µM.
API: value field is a number in %; no unit string.

// solved cases for cytotoxicity at 10 µM follow
In [3]: df
Out[3]:
                                   compound  readout_value
0   Cn1ncc2c(N3CCCN(C(=O)c4ccsc4)CC3)ncnc21          -10.6
1  COc1cccc2c1OCC(CNC(=O)CN(C)C1CCCC1)C2 (stereo unspecified)           -147
2  Cc1nnc(NC(=O)NCCN(C(=O)OC(C)(C)C)C2CC2)s1           5.53
3  CN1CCC(N(C)C[C@H]2CC[C@@H](Cc3cccc(O)c3)O2)CC1          -12.2
4                  CNC(=O)c1csc(-c2ccoc2)n1          -5.64

Item under review: Fc1ccccc1CN1CCCC2(CCN(c3ncccn3)CC2)C1 . Reported cytotoxicity at 10 µM?
-132

###

test_details: Toxicity liver stage against HepG2, at 10uM
Assay type: cell-based
Design: test concentration 10 uM, cell line HepG2-A16-CD81EGFP
test_conditions: human, HepG2-A16-CD81EGFP cells; read-out: INHIBITION
Listed here are compounds together with their documented cytotoxicity at 10 µM.
API: value field is a number in %; no unit string.

// solved cases for cytotoxicity at 10 µM follow
>>> df
                                   compound            result_type  readout_value
0  COC1[C@@H]2CC[C@H]1CN(c1nc(C)nc3ccsc13)C2 (stereo partly specified)  cytotoxicity at 10 µM             18
1     Cc1ccc(-n2nnnc2C2(NCc3ccco3)CCCC2)cc1  cytotoxicity at 10 µM           7.55
2  CN(C)C(C(=O)N1CCC(CCO)CC1)c1ccccc1F (stereo unspecified)  cytotoxicity at 10 µM           5.88
3  CCOCCC(=O)N1C[C@@H]2CC[C@H]1CN(Cc1ccncc1)C2  cytotoxicity at 10 µM          -11.1
4  COCCn1cc2c(n1)C(CNCc1ccc(F)cc1)OCC2 (stereo unspecified)  cytotoxicity at 10 µM          -9.47

Item under review: CC(C)(C)CC(=O)NCC(=O)Nc1ccn(Cc2cccnc2)n1 . Reported cytotoxicity at 10 µM?
15.4

Item under review: O=C(c1ccncc1)N1CCC(Cc2cnc3[nH]ccc3c2)CC1 . Reported cytotoxicity at 10 µM?
-1.86

Item under review: Cc1ccoc1C(=O)NCCOc1ncc(Cl)cc1Cl . Reported cytotoxicity at 10 µM?
3.02

Item under review: O=C(Oc1ccccc1)N1CCC(CNS(=O)(=O)c2cccnc2)CC1 . Reported cytotoxicity at 10 µM?
11.1

Item under review: CC(C)C1CN(C(=O)c2ccc(C(N)=O)cc2)CCS1 (stereo unspecified) . Reported cytotoxicity at 10 µM?
-4.03

Item under review: CCN1CCO[C@@H]2CN(C(=O)NCc3ccccc3)CC[C@@H]2C1 . Reported cytotoxicity at 10 µM?
-117

###

test_details: Toxicity liver stage against HepG2, at 10uM
Type: cell-based
Design: test concentration 10 uM, cell line HepG2-A16-CD81EGFP
test_conditions: human, HepG2-A16-CD81EGFP cells; read-out: INHIBITION
Listed here are compounds together with their documented cytotoxicity at 10 µM.
API: value field is a number in %; no unit string.

// solved cases for cytotoxicity at 10 µM follow
                                   compound  readout_value
0  CN(C)CCN1C(=O)CC[C@@H]2[C@H]1CCN2Cc1cccc(C#N)c1          -89.1
1  Cc1cc(C)n(C2CCN(Cc3c(-c4cc(C)on4)nn(C)c3Cl)C2)n1 (configuration not stated)           3.84
2  O=C(NC(Cc1ccsc1)c1nccs1)C1CCOCC1 (configuration not stated)            1.9
3  Cc1nc(C2CCNC2)nc2c1CCC(=O)N2C (configuration not stated)           3.77

Item under review: CNS(=O)(=O)c1cccc(C(C)NCc2cccc(C)c2C)c1 (configuration not stated) . Reported cytotoxicity at 10 µM?
9.44

Item under review: COC(=O)c1ccc(CN2CCC(c3n[nH]c(C)n3)CC2)s1 . Reported cytotoxicity at 10 µM?
-2.87

Item under review: CC(=O)N1CCC(Nc2ccc(Br)cc2C#N)C1 (configuration not stated) . Reported cytotoxicity at 10 µM?
2.5

Item under review: CCS(=O)(=O)c1ccc2oc([C@H]3CCN(Cc4ccccc4)C3)nc2c1 . Reported cytotoxicity at 10 µM?
4.03

Item under review: CN(C)C(=O)CN1CCCC1c1cccc(Cc2ccccc2F)n1 (configuration not stated) . Reported cytotoxicity at 10 µM?
-6.94

###

Listed here are molecules together with their documented cytotoxicity at 10 µM.
test_details: Toxicity liver stage against HepG2, at 10uM
Assay type: cell-based
Set-up: test concentration 10 uM, cell line HepG2-A16-CD81EGFP
test_conditions: human, HepG2-A16-CD81EGFP cells; read-out: INHIBITION
API: value field is a number in %; no unit string.

>>> df
                                  molecule            result_type  readout_value
0   Cc1nn(C(C)(C)C)c(=O)n1CC(=O)NCC(F)(F)F  cytotoxicity at 10 µM          -1.32
1                  Cc1nsc(N2CCc3sccc3C2)n1  cytotoxicity at 10 µM           7.03
2  Fc1ccc2c(c1)nc1n2[C@@H](CNCc2nccs2)COC1  cytotoxicity at 10 µM           1.07

Item under review: Cc1cc(C)cc(OCCCn2nc3ccccn3c2=O)c1 . Reported cytotoxicity at 10 µM?
3.95

Item under review: Cc1noc([C@H]2CC[C@@H]3[C@@H](CCN3S(=O)(=O)C3CC3)O2)n1 . Reported cytotoxicity at 10 µM?
-1.98

Item under review: CS(=O)(=O)Nc1ccc2c(c1)NC(=O)CC2c1cnn2cccnc12 (stereo unspecified) . Reported cytotoxicity at 10 µM?
-1.77

Item under review: CCc1cnc(N2CCC3(CC2)CCN(c2cnn(C)c2)C3=O)nc1 . Reported cytotoxicity at 10 µM?
-2.2

Item under review: CN(C(=O)c1ccc(OCC(F)F)nc1)c1ccc2c(c1)CCO2 . Reported cytotoxicity at 10 µM?
13.6

Item under review: O=C(NC1CCC(C(=O)N2CCSCC2)CC1)N1CCOCC1 (stereo unspecified) . Reported cytotoxicity at 10 µM?
13.1

Item under review: Cc1cnn(C2CCCN(C(=O)c3ccc(Cn4ccnc4)cc3)C2)c1 (stereo unspecified) . Reported cytotoxicity at 10 µM?
2.54

Item under review: Cn1nc(COc2cncnc2)c2c1CCN(Cc1ccco1)C2 . Reported cytotoxicity at 10 µM?
9.64

###

test_details: Toxicity liver stage against HepG2, at 10uM
Type: cell-based
Design: test concentration 10 uM, cell line HepG2-A16-CD81EGFP
test_conditions: human, HepG2-A16-CD81EGFP cells; read-out: INHIBITION
result_type: cytotoxicity at 10 µM (%)
API: value field is a number in %; no unit string.

// solved cases for cytotoxicity at 10 µM follow
In [3]: df
Out[3]:
                                   compound  readout_value
0  CC1(C)CC(N(Cc2cccnc2)Cc2cccnc2)CC(C)(C)N1            1.3
1  CCc1nccn1C1CCCN(C(=O)c2ccc3[nH]c(=O)[nH]c3c2)C1 (configuration not stated)          -3.71
2  CCc1nc(C(=O)N(CC)CC(=O)N(C)C)nn1-c1ccccc1Cl           5.25

Item under review: Cn1ncc2c(=O)[nH]c(N3CCCC3c3cccc(Cl)c3)nc21 (configuration not stated) . Reported cytotoxicity at 10 µM?
19.6

Item under review: Cc1cccc(CN2C(=O)CO[C@@H]3CN(Cc4cnn(C)c4)C[C@H]32)c1 . Reported cytotoxicity at 10 µM?
1.1

Item under review: Cc1ccc(NC2COC3(CCN(CC(C)C)CC3)C2)nn1 (configuration not stated) . Reported cytotoxicity at 10 µM?
-1

Item under review: Oc1cc(CC2COCCN(CC3(O)CCOCC3)C2)ncn1 (configuration not stated) . Reported cytotoxicity at 10 µM?
8.08

Item under review: CC(C)NC(=O)N1CCCCCC1C1CCN(c2ncccn2)CC1 (configuration not stated) . Reported cytotoxicity at 10 µM?
-23.2

Item under review: Cc1ncc(C(=O)NCCNc2ncnc3sccc23)s1 . Reported cytotoxicity at 10 µM?
27.6

Item under review: Cn1ccnc1-c1cnn(CC(=O)Nc2ccnn2C)c1 . Reported cytotoxicity at 10 µM?
-10.1

Item under review: CCc1nnc2n1CCN(Cc1ncc(-c3ccc(Cl)cc3)o1)C2 . Reported cytotoxicity at 10 µM?
-9.66
